# SYSTEM NAME: T1, Macaca fascicularis IL2Rγ extracellular domain expressed with a C-terminal myc-myc-hexahistidine tag (Macaca fascicularis)
# T1 construct: also called mfIL-2Rg-MMH; mfIL-2RG-MMH
# T1 chain: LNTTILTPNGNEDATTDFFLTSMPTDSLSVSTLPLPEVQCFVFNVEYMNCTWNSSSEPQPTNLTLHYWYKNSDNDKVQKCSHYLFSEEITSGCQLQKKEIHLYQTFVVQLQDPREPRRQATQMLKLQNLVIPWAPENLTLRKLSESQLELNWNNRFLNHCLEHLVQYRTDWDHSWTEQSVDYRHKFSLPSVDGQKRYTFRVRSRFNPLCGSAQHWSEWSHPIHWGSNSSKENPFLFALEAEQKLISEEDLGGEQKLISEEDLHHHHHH
# PROTOCOL DESCRIPTION: SPR Biacore 4000, mAb captured by anti-hFc, 37C, dissociation in PBS-T pH 7.4
Measured 100 nM Ag Bound (RU) of individual entries
Just the number in RU, nothing appended.

Below, each entry is followed by its recorded 100 nM Ag Bound (RU) result.
# BINDER, MEASURED RESULT
rows = [
    ("H4H12874P (antibody, human IgG4 S228P, kappa, V domains shown, anti-IL2Rγ monoclonal antibody expressed with human IgG4 Fc) VH: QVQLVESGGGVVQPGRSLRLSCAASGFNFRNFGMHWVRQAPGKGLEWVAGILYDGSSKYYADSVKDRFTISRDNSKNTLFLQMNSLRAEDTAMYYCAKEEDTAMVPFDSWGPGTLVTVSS VL: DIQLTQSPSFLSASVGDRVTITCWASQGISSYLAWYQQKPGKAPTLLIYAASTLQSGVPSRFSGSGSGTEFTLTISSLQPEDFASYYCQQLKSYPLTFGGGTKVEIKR", 92),
    ("H4H13538P (antibody, human IgG4 S228P, kappa, V domains shown, anti-IL2Rγ monoclonal antibody expressed with human IgG4 Fc) VH: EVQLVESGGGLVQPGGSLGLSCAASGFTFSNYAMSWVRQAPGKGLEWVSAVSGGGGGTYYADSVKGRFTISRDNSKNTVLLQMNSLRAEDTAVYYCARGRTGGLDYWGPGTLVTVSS VL: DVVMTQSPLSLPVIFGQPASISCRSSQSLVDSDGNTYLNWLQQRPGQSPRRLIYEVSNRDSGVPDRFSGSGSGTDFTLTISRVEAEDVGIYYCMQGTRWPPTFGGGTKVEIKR", 119),
    ("H4H12889P (antibody, human IgG4 S228P, kappa, V domains shown, anti-IL2Rγ monoclonal antibody expressed with human IgG4 Fc; also called REGN7257) VH: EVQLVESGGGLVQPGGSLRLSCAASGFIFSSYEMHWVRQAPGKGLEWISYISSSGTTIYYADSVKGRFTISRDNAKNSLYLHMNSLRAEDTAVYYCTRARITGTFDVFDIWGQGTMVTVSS VL: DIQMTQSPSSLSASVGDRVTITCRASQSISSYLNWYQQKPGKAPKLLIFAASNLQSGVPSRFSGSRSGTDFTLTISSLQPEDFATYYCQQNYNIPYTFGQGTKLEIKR", 147),
    ("H4H12871P (antibody, human IgG4 S228P, kappa, V domains shown, anti-IL2Rγ monoclonal antibody expressed with human IgG4 Fc; also called REGN9434) VH: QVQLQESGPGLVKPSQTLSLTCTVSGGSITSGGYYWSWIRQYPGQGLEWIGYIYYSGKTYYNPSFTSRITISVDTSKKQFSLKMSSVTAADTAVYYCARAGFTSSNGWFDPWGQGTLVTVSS VL: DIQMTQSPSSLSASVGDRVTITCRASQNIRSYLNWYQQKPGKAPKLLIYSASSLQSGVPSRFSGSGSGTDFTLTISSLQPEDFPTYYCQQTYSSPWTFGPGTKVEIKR", 143),
    ("H4H12899P (antibody, human IgG4 S228P, kappa, V domains shown, anti-IL2Rγ monoclonal antibody expressed with human IgG4 Fc) VH: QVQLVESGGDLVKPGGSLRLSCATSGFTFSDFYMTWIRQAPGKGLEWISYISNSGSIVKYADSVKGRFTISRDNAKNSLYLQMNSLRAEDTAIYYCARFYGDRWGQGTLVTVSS VL: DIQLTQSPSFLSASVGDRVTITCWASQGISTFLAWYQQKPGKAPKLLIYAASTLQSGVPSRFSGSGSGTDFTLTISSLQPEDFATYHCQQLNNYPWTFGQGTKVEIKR", 160),
]

Below: the item to evaluate.
Quick one: 100 nM Ag Bound (RU) for H4H12858P (antibody, human IgG4 S228P, kappa, V domains shown, anti-IL2Rγ monoclonal antibody expressed with human IgG4 Fc; also called REGN9433) VH: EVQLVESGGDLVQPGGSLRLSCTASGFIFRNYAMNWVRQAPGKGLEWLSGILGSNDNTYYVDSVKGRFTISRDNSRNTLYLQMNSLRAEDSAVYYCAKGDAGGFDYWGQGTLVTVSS VL: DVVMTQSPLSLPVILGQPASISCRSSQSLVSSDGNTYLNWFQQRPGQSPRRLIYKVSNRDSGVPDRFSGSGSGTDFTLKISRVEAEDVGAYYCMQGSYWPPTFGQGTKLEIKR ?
143
